Where do these numbers come from? They come from a melting point compilation (Tetko et al.; mined from patent text by program, amines drawn as free bases though some values may be those of a salt).

Quantity: melting point

| Molecule | Result |
| --- | --- |
| CC1(C)C(C(=O)NC(=O)CN)C1(C)C | 176 °C |
| NCC1CN(c2c(F)cc3c(=O)c(C(=O)O)cn(C4CC4)c3c2F)C1 | 190 to 195 °C |
| COc1cc(COc2nn(-c3ccccc3)cc2CC#N)ccc1OCc1nc(-c2ccco2)oc1C | 153 to 154 °C |
| Cc1cccc(Cl)c1NC(=S)Nc1c(C)nn(C)c1C | 201 to 202 °C |
| CC(C)c1nnc(-c2ccc(-c3ccccc3)cc2)n1-c1ccccc1F | 201 to 204 °C |
| CC(C)OP(=O)(CC1(C(=O)O)CCCC1)OC(C)C | 53 to 57 °C |
| Cn1c(=O)ccc2cnc(Nc3ccccc3)nc21 | 244 to 247 °C |
| O=C1c2cc(OCc3ccccc3)ccc2OCC1Cn1ccnc1 (configuration not stated) | 108 to 110 °C |
| CNC(=O)c1cnc(Cl)cc1-c1ccccc1C | 91 to 93 °C |
| CCOC(=O)c1cccc(-c2coc3c(C)c(O)ccc3c2=O)c1 | 222 °C |
| CCC(CC)(CC)NC(=S)Nc1cc(Cl)cc(Cl)c1 | 152 to 154 °C |
| CNc1ccccc1C(=O)NCCCn1ccnc1 | 138 to 141 °C |
| COc1ccc(C=C2Oc3ccc(C(=O)O)cc3C2=O)c(OC)c1OC | 247 to 249 °C |
| COc1ccc([N+](=O)[O-])c(Br)c1OC | 120 to 122 °C |
| COc1ccc(-c2oc(C(F)(F)F)nc2-c2ccc(S(N)(=O)=O)cc2)cc1F | 150 to 151 °C |
| O[C@@H]1c2ccccc2CC[C@H]1NCc1ccccc1 (relative stereo) | 110 to 114 °C |
| CC(O)N(C)C(=O)c1cc(C(C)(C)C)c(O)c(C(C)(C)C)c1 (configuration not stated) | 161 to 164 °C |
| Cc1nc(N)nc(N)c1-c1ccc([N+](=O)[O-])c(Cl)c1Cl | 265 °C |
| CC(C)(C)c1cc(C(=O)Oc2ccc(Cl)c(N)c2)cc(C(C)(C)C)c1O | 64 to 66 °C |
| CCc1cc(CO)c(OC)nc1C | 53 to 55 °C |
| COc1cc(OC)c(-c2cccs2)cc1/C=C/C(=O)c1ccc(S(=O)(=O)NCCCn2ccnc2)cc1 | 160 to 162 °C |
| CCOc1ccc(C(=O)Nc2ccccc2)cc1N | 189 to 190 °C |

###

Below, each entry is listed with its recorded melting point.
Quantity: melting point

| Molecule | Quantity | Result |
| --- | --- | --- |
| CC(C)Nc1ccc(C#Cc2cc(C(=O)Nc3ccc(CN4CCN(C)CC4)c(C(F)(F)F)c3)ccc2Cl)nn1 | melting point | 133 to 134 °C |
| CC1(C)CC(NC(=O)NCc2ccccc2)c2cc(C#N)ccc2O1 (stereo not given) | melting point | 140 to 141 °C |
| CC[N+]1([O-])CCC(O)(c2cc(F)cc(Cl)c2)C1 (stereo not given) | melting point | 158 to 160 °C |
| COc1ccnc(CCc2nc3cc(C)cnc3[nH]2)c1 | melting point | 150 to 152 °C |
| O=C(O)c1cccc(OCc2ccc3ccccc3n2)c1 | melting point | 178 to 182 °C |
| Cn1cncc1-c1cc(C=NN(CCC(C)(C)O)C(N)=S)nc(NC2CCN(S(C)(=O)=O)CC2)n1 | melting point | 204 to 206 °C |
| Oc1ccc(-c2nc3ccc(O)cc3c(-c3ccc(F)cc3)c2Cl)cc1 | melting point | 295 to 296 °C |
| OCc1cn(-c2ccc(OC(F)(F)F)cc2)cn1 | melting point | 105 to 106 °C |
| CCOCn1c(Oc2ccccc2)c(C(C)C)c(=O)[nH]c1=O | melting point | 137 to 138 °C |
| O=C(C=Cc1ccc(O)c(O)c1O)OCCc1ccccc1 | melting point | 144 °C |
| Cc1cc(Cl)cc(C(=O)NCC2CCO2)c1NC(=O)c1cc(Br)nn1-c1ncccc1Cl (stereo not given) | melting point | 95 to 97 °C |
| CCOC(=O)c1cc(OCc2ccccc2)c2ccc(Br)cc2c1 | melting point | 105 °C |
| CCc1nc2c(N)nc3cc(-c4cccnc4)ccc3c2n1CC(C)(C)O | melting point | 245 to 247 °C |
| CC(=O)NC[C@H]1CN(c2ccc(N3CCC4(CC3)CO4)c(F)c2)C(=O)O1 | melting point | 152 to 154 °C |
| Cn1c2ccccc2c(=O)c2c(-c3ccccc3NC(=O)C(C)(C)C)cccc21 | melting point | 160 to 162 °C |
| COc1ccc2c(c1)c(/C=C/C(=O)c1ccncc1)cn2C | melting point | 178 to 182 °C |
| Oc1c(-c2ccccc2)cc(C2c3ccccc3-c3ccccc32)cc1-c1ccccc1 | melting point | 144 to 145 °C |
| COc1cccc(Cc2cc(-c3ccccc3)c(-c3ccccc3)s2)c1 | melting point | 100 to 102 °C |
| O=C(CC(Cc1ccccc1)(C(=O)O)C(=O)O)c1cccc(C(F)(F)F)c1 | melting point | 145 to 147 °C |
| Nc1ccc(NCCCNc2cccc3c2C(=O)c2ccccc2C3=O)cc1 | melting point | 183 to 185 °C |
